- SYSTEM NAME: T1, human collagen type I, acid soluble, extracted from placenta (Sigma C7774) (human, UniProt P02452 162-1218; P08123 80-1119)
- T1 construct: tissue extract, gelled and dried in wells; also called dried human collagen; h-Collagen
- T1 sequence (P02452 162-1218 limits assumed, chain 1 of 2): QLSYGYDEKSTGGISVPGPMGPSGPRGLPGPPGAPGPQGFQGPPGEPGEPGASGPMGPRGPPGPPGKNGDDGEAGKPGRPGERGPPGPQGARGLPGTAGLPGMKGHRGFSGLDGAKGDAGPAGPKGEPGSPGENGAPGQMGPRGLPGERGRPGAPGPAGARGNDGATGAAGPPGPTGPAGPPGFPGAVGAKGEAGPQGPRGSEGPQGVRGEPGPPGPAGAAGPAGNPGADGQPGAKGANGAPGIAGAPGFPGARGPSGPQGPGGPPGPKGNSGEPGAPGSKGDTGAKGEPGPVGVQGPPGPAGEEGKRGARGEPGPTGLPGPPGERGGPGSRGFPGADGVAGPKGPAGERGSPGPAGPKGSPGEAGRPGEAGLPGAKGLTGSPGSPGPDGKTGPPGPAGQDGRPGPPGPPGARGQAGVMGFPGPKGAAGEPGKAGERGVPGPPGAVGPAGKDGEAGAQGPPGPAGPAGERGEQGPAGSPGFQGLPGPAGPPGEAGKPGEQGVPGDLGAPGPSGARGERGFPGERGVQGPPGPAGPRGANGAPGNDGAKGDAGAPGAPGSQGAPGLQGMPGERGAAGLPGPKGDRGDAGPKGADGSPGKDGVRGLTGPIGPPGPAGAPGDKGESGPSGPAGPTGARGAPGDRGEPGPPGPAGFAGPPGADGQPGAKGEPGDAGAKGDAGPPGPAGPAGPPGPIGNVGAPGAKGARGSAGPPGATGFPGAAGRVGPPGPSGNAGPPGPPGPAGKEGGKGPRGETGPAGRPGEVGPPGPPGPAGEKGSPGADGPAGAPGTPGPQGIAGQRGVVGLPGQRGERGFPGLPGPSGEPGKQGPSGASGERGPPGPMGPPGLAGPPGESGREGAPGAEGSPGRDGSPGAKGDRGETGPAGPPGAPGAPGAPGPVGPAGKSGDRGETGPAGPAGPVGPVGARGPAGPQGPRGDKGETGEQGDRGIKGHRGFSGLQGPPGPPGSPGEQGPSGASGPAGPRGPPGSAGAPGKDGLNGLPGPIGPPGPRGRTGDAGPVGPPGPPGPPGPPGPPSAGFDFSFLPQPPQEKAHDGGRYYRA
- T1 sequence (P08123 80-1119 limits assumed, chain 2 of 2): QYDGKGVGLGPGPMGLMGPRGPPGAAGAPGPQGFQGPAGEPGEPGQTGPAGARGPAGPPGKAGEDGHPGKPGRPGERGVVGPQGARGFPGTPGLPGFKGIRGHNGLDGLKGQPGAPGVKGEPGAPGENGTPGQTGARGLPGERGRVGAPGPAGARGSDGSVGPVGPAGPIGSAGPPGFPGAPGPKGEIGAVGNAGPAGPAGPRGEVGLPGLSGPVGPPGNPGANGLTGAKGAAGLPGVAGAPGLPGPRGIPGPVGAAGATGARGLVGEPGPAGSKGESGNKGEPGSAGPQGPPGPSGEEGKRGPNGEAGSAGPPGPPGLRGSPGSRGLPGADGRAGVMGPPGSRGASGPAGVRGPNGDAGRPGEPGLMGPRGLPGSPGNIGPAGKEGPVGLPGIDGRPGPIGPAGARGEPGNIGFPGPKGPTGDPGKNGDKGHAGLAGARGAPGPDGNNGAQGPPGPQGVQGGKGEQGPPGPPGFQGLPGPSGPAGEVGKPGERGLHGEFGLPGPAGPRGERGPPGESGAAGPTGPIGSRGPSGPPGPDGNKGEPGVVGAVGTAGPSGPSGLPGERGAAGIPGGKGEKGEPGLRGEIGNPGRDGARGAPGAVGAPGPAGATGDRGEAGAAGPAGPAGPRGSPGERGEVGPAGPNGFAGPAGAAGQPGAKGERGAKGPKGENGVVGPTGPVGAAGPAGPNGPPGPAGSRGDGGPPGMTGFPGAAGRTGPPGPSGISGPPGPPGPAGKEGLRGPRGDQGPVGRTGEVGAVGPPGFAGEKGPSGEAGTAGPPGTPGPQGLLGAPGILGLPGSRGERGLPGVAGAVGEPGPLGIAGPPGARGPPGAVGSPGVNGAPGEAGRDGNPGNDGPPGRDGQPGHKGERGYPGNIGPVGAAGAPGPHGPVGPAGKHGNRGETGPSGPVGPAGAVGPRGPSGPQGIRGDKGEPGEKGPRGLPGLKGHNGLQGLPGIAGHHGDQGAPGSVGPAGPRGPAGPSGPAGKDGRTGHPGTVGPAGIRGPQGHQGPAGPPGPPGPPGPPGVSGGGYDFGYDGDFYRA
- ASSAY SUMMARY: dried collagen assay
Bridge positions count the residues as written; N and C are the ends. Square brackets hold non-standard residues; d marks the D form. Primed or numbered codes have the meaning given here. Side chains are listed from the residue outwards. Ends that are not written are not given here. Gd^T = not defined here; Gd^T″ = GdDTPA-thiourea
ASSAY READOUT: % bound (%)
Answer in %, number only, no unit symbol.

Some binders with recorded % bound:
// returns reported % bound for input {Gd^T}-GQWHCTTRFPAHYCLYG (disulfide 5-14 (inferred); not fully specified (C-terminus); reading uncertain) [Compound ID 865]
30

// returns reported % bound for input {Gd^T″}-GK([Gly-Gd^T″])WHCTTYFPHHVCLYG (disulfide 5-14 (inferred)) [Compound ID 965]
26

// returns reported % bound for input {Gd^T″}-GQWHCTYLFPHHYCLYG (disulfide 5-14 (inferred)) [Compound ID 921]
68

Further cases:
// returns reported % bound for input {Gd^T″}-GQWHCTTYFPHH[dY]CLYG (disulfide 5-14 (inferred); not fully specified (C-terminus)) [Compound ID 914]
19

// returns reported % bound for input {Gd^T}-GQWACSGDEYTWHCNYE (disulfide 5-14 (inferred); not fully specified (C-terminus); reading uncertain) [Compound ID 840]
15
